Source of measurements: PubChem BioAssay (NCI)

# Tested on: MOLT-4 leukemia
# ASSAY EXPLANATION: NCI-60 one-dose screen, 48 h (100 = growth as untreated, 0 = no growth, -100 = all killed)
# REPORTED CONDITIONS: 10 µM unless noted
Compounds without any hit were thinned out: in the full panel of roughly 83,000, 20% have a hit.
growth values for the compounds below.
// return numeric value only (unit: %, not printed)

{"columns": ["COMPOUND", "growth (%)"],
 "data": [
  ["Cc1cc2nc3c4cc(C=O)ccc4n(CCN(C)C)c3nc2cc1C", 9.19],
  ["COc1ccc(OC)c(CCn2cncc2-c2c[nH]c3ccccc23)c1", 75.3],
  ["COc1ccc(/C=N/NC(=O)c2cnn3c2NC(c2ccccc2)C3)cc1OC (stereo not given)", 50.3],
  ["COc1cccc(-c2nc3occn3c2-c2ccnc(NCCNS(=O)(=O)c3ccc(C(F)(F)F)cc3)n2)c1", 75.3],
  ["COc1cc(F)c(/C=C/c2cc(/C=C/c3cc(OC)c(OC)cc3F)on2)cc1OC", 91.1],
  ["COc1cccc(-c2nc3occn3c2-c2ccnc(NCCCNS(=O)(=O)c3ccc(C(F)(F)F)cc3)n2)c1", 69],
  ["O=c1c2c(c(=O)n1O)c1c3ccc[nH]c3nc1c1nc3[nH]cccc3c12", 43.7],
  ["COc1ccc(C(=O)C2C(C#N)C(C#N)C3C=Cc4ccccc4N32)cc1 (stereo not given)", 37.5]
]}

State the recorded growth for this entry: CC1(C)CC(=O)C2=C(C1)N(c1ccc(F)cc1F)C(N)=C(C#N)C2c1cc(Br)ccc1F (stereo not given)
88.9

Report growth for N/C(=N\C(N)=N\c1nc2ccccc2s1)c1cccc(Cl)c1 please.
72.5

Reported growth for O=C(O)c1ccc2c(c1)C(=O)N(Cc1ccccc1)C2=O : what is it?
98.5

Form field: reported growth of N#Cc1c(NCc2ccccc2I)sc2c1CCCCC2
84.2

###

# Tested on: SK-MEL-5 melanoma
# ASSAY EXPLANATION: NCI-60 one-dose screen, 48 h
# REPORTED CONDITIONS: 10 µM unless noted
About 83,000 compounds went through this panel and 20% of them were active in at least one assay; those are over-represented in the sample as a whole. Activity calls are given as the source filed them. Rule for the calls: active = growth percent below 10; inactive = the rest.
Output constraint: value belongs to Yes for active, No for inactive

Reference set, count: 2
{"columns": ["COMPOUND", "CLASS NAME"],
 "data": [
  ["CNC(=O)c1cncc(Cn2nc(C)c(NC(=O)c3ccc(COc4ccc(C(F)(F)F)cc4C)cc3)c2C)c1", "Yes"],
  ["COc1cc(/C(C)=C(\\c2ccc(Cl)cc2)c2ccc(OCCN(C)C)cc2)ccc1F", "No"]
]}

// next entry
Assay result, entry CCN(CC)CCOc1ccc(NC(=O)C(C(C)C)N2C(=O)/C(=C/c3ccc(Br)cc3)SC2=S)cc1 (stereo not given) — outcome?
No

###

# Tested on: NCI-H23 lung
# ASSAY EXPLANATION: NCI-60 one-dose screen, 48 h (100 = growth as untreated, 0 = no growth, -100 = all killed)
# REPORTED CONDITIONS: 10 µM unless noted
Compounds without any hit were thinned out: in the full panel of roughly 83,000, 20% have a hit.
Assign condition met to entries whose growth meets or exceeds 90%; assign condition not met to the rest.

{"columns": ["MOLECULE", "CLASS NAME"],
 "data": [
  ["O=[N+]([O-])c1ccc(NC(=S)N/N=C/c2cc3ccccc3n3nnnc23)cc1", "condition not met"],
  ["CC(=O)N1N=C(c2ccc(-n3ccc(C(F)(F)F)n3)c(F)c2)CC1c1ccc[nH]1 (configuration not stated)", "condition met"],
  ["Brc1ccc2[nH]cc(-c3cncn3CCc3ccccc3)c2c1", "condition not met"]
]}

Could you now look at the following molecule, please?
hey, is growth for this one >= 90%? C=C(C)[C@@H]1CC[C@]2(C(=O)N[C@@H](Cc3ccccc3)C(=O)OC)CC[C@]3(C)[C@H](CC[C@@H]4[C@@]5(C)CCC(=O)C(C)(C)[C@@H]5CC[C@]43C)[C@@H]12
condition not met

###

# Test system: M14 melanoma
# ASSAY EXPLANATION: NCI-60 one-dose screen, 48 h
# REPORTED CONDITIONS: 10 µM unless noted
Compounds without any hit were thinned out: in the full panel of roughly 83,000, 20% have a hit. Calls of active or inactive are those of the source. How the source made its calls: active means growth percent below 10; inactive means the rest.
Pick one: 1 (active), 0 (inactive)

{"columns": ["COMPOUND", "ASSAYED SYSTEM", "CLASS NAME"],
 "data": [
  ["COc1ccc2c(c1)oc1c(C)c3c(c(C)c12)C(=O)N(CCN1CCOCC1)C3=O", "M14 melanoma", 0],
  ["O=C(c1nc2ccccc2[nH]1)C1C(c2ccc(Cl)cc2)C2CC3CCCC[C@H]3N2[C@@]12C(=O)Nc1cc(Cl)ccc12 (some centres undefined)", "M14 melanoma", 0],
  ["CCCCC/C=C/C(C)=C/C1CC(C)C/C=C/CCC(O)C(OC(N)=O)CCC(C)CC(O)C(C)C(=O)O1 (centres undefined)", "M14 melanoma", 0]
]}

So what was the verdict on CC1(C)CC[C@]23CC[C@]4(C)[C@H](CC[C@@H]5[C@@]6(C)CCCNC(C)(C)[C@@H]6CC[C@]54C)[C@H]2[C@H]1OC3 in this test?
1

###

# System: HOP-62 NSCLC
# ASSAY EXPLANATION: NCI-60 one-dose screen, 48 h
# REPORTED CONDITIONS: 10 µM unless noted
The panel holds about 83,000 compounds, 20% with a hit somewhere; the sample as a whole holds those more often. Active and inactive are the calls of the source. The calls were made as follows: active = growth percent below 10; inactive = the rest.
Assign a class; possible classes are active, inactive

Examples with answers:
{"columns": ["COMPOUND", "CLASS NAME"],
 "data": [
  ["CC(Oc1ccc(C(=O)O)cc1C(F)(F)F)c1ccc(Oc2ccccc2)cn1 (centres undefined)", "inactive"],
  ["O=S(=O)(NCCNc1nccc(-c2c(-c3cccc(F)c3)nc3sccn23)n1)c1ccc(Cl)cc1", "inactive"],
  ["CCCOC(=O)N[C@H]1CCc2c(Cl)c(OC)c(OC)c(OC)c2-c2ccc(SC)c(=O)cc21", "inactive"],
  ["COc1ccc(C(C)=O)c(OC)c1", "inactive"],
  ["NS(=O)(=O)c1ccc(CCN2C(=O)C3C(C2=O)C2(Cl)C(Cl)=C(Cl)C3(Cl)C2(Cl)Cl)cc1 (centres undefined)", "inactive"],
  ["O=C1/C=C/[C@@H](O)[C@@H]2C[C@@H](O)C[C@H]2/C=C/CCC[C@H](CCc2cccc3ccccc23)O1", "inactive"],
  ["CC(=O)N1N=C(c2ccc(-n3ccc(C(F)(F)F)n3)c(F)c2)CC1c1ccc[nH]1 (centres undefined)", "inactive"],
  ["COc1cc2c(-c3cc4c(cc3CNCCc3ccc5c(c3)OCO5)OCO4)cccc2c(OC)c1O", "inactive"],
  ["O=C(Nc1cccc(C2=NCCN2)c1)c1ccc(-c2ccc(C(=O)Nc3cccc(C4=NCCN4)c3)cc2)cc1", "inactive"],
  ["COc1ccc(/C=C2\\Oc3cc(OCCCCCN4CCCCC4)ccc3C2=O)cc1OC", "inactive"]
]}

Please state the recorded outcome for this compound: O=C1c2ccc3c4c(ccc(c24)C(=O)N1CCCNCc1ccccc1Cl)C(=O)N(CCCNCc1ccccc1Cl)C3=O
active

Name the outcome recorded for O=C(c1nc2ccccc2[nH]1)C1C(c2ccc(Cl)cc2)C2CC3CCCC[C@H]3N2[C@@]12C(=O)Nc1cc(Cl)ccc12 (some centres undefined) in the assay.
inactive

Hi, sorry to bother you, what did the test record for Cc1cc(C)c(S(=O)(=O)Oc2ccccc2[N+](=O)[O-])c(C)c1 ?
inactive

Per the records of this test, what outcome belongs to CCNc1nc2cc(Nc3ccnc4cc(Cl)ccc34)ccc2o1 ?
inactive

Write down the call the test reported for this compound. Item: [O-][n+]1c(Cl)cc(Cl)c2ccccc21
inactive

Hi team, can someone confirm the assay call for COc1ccc(C(=O)CSc2nc(-c3cc(OC)ccc3OC)cc(-c3ccc(Cl)cc3)c2C#N)cc1 ?
inactive

Please share the test call associated with O=C(c1nc2ccccc2[nH]1)C1C(c2ccc(Br)cc2)C2CC3CCCC[C@H]3N2[C@@]12C(=O)Nc1cc(Cl)ccc12 (some centres undefined) .
inactive

// outcome(item) with item = O=C1Nc2cc(-c3ccc(NS(=O)(=O)c4ccccc4)cc3)ccc2/C1=C/c1ccc[nH]1
inactive

Which outcome was entered for the compound Nc1ccccc1NC(=O)c1ccc(-n2nc(-c3ccccc3)c3ccccc32)cc1 in this test?
inactive

###

# Tested on: SK-OV-3 ovarian
# ASSAY EXPLANATION: NCI-60 one-dose screen, 48 h (100 = growth as untreated, 0 = no growth, -100 = all killed)
# REPORTED CONDITIONS: 10 µM unless noted
Compounds without any hit were thinned out: in the full panel of roughly 83,000, 20% have a hit.
VALUE KIND: growth (%)
Just the number please, in %, no unit attached.

{"columns": ["MOLECULE", "growth (%)"],
 "data": [
  ["CCCCCOc1ccc(/C=N/Nc2cc(C)nc3ccc(Cl)cc23)cc1", 90.4]
]}

Recorded growth of O=C(/C(=C/c1ccc([N+](=O)[O-])cc1)SCc1ccc(F)cc1)c1ccc(F)cc1 , please.
103

Param item = C/C(=N\Nc1cc(C)nc2ccc(Br)cc12)c1ccc([N+](=O)[O-])cc1 ; retrieve measured growth.
84.1
